All figures here come from ChEMBL document CHEMBL1151705.

# System: Staphylococcus aureus
# test details: Antimicrobial activity against drug-susceptible Staphylococcus aureus 2 after 20 hrs by agar dilution method
# Type: functional
# measurement setup: Staphylococcus aureus, 20 h; read-out: MIC
measure: MIC

Req: What value of MIC has been recorded for this entry: CCOC(=O)[C@H]1[C@H](C)O[C@@H](O[C@H]2[C@H](N(C)C)[C@@H](O)[C@H](O[C@H]3[C@@H](CC=O)C[C@@H](C)[C@@H](O)CN(C)CCC[C@H](CCCc4cnc5ccccc5c4)OC(=O)C[C@@H](OC(=O)CC)[C@@H]3OC)O[C@@H]2C)C[C@@]1(C)O
Resp: 0.25 µg/mL

Req: Please answer likewise for CCOC(=O)[C@H]1[C@H](C)O[C@@H](O[C@H]2[C@H](N(C)C)[C@@H](O)[C@H](O[C@H]3[C@@H](CC=O)C[C@@H](C)[C@@H](O)CN(C)CC(/C=C\Cc4cnc5ccccc5c4)CCOC(=O)C[C@@H](OC(=O)CC)[C@@H]3OC)O[C@@H]2C)C[C@@]1(C)O (some centres undefined)
Resp: 1 µg/mL

Req: Then CCOC(=O)[C@H]1[C@H](C)O[C@@H](O[C@H]2[C@H](N(C)C)[C@@H](O)[C@H](O[C@H]3[C@@H](CC=O)C[C@@H](C)[C@@H](O)CN(CCCCc4ccccc4)CCCNC(=O)C[C@@H](OC(=O)CC)[C@@H]3OC)O[C@@H]2C)C[C@@]1(C)OC(C)=O ?
Resp: 1 µg/mL

Req: Same thing, different compound: CCOC(=O)[C@H]1[C@H](C)O[C@@H](O[C@H]2[C@H](N(C)C)[C@@H](O)[C@H](O[C@H]3[C@@H](CC=O)C[C@@H](C)[C@@H](O)CN(C)CCC[C@H](CCCc4ccnc5ccccc45)OC(=O)C[C@@H](OC(=O)CC)[C@@H]3OC)O[C@@H]2C)C[C@@]1(C)O
Resp: 1 µg/mL
